Entry source: PubChem BioAssay (NCATS)

Quick list: Potency per entry.
experiment: qHTS drug screen for cell cycle checkpoint inhibitors in PARPi-resistant BRCA-mutant ovarian cancer cell lines. (AID 1963452); conditions: PEO1/OlaR viability, CellTiter-Glo luminescence, 96 h; further: potency means the concentration at half of the fitted maximal effect
Activity calls are given as the source filed them. The call rests on the fitted dose curve.

// worked examples, Potency included
Output measured Potency for this item: CC(=O)c1cnc2ccc(-c3cc(Cl)c(O)c(Cl)c3)nc2c1NC1CCC(CN(C)C)CC1 (stereo unspecified)
252 nM (active)

Give recorded Potency. "Cc1nc2c(-c3cnc(N)nc3)nc(N3CCOCC3)nc2n1C(C)C"
436 nM (active)

Give the reported value of Potency for this record: "NS(=O)(=O)OC[C@@H]1C[C@@H](n2ccc3c(N[C@H]4CCc5ccccc54)ncnc32)C[C@@H]1O"
347 nM (active)

Determine from records and report Potency for "CC(C)Nc1cc(-c2c[nH]c(C(=O)N[C@H](CO)c3cccc(Cl)c3)c2)c(Cl)cn1"
8710 nM (active)

Assign Potency to the following record: "CON(C)C(=O)N1N=C(c2cc(F)ccc2F)S[C@@]1(CCCN)c1ccccc1"
8.7 nM (active)

New cases:
Tell me its Potency given "CCCCC(=O)OCC(=O)[C@]1(O)Cc2c(O)c3c(c(O)c2[C@@H](O[C@H]2C[C@H](NC(=O)C(F)(F)F)[C@H](O)[C@H](C)O2)C1)C(=O)c1c(OC)cccc1C3=O" as the entry.
549 nM (active)

---

assay: S16 Schwann cell PMP22 intronic element beta-lactamase assay (AID 624044); conditions: S16 rat Schwann cells, PMP22 element beta-lactamase FRET, 24 h; series mostly up to 38.3 µM; further: nearly all actives have a fitted effect of over 15% in size
Inconclusive results are not listed. Active and inactive are the calls of the source. The call rests on the fitted dose curve.
Response enum: active, inactive

What did this assay record as the result for "C=CCSSSCC=C" ?
inactive

Outcome? "Nc1c(N=Nc2ccc(-c3ccc(N=Nc4cc(S(=O)(=O)O)c5ccccc5c4N)cc3)cc2)cc(S(=O)(=O)O)c2ccccc12"
inactive

Recorded call for "CCCCC/C=C\C/C=C\CCCCCCCC(=O)O" ?
inactive

What call does the record list for "CCN(CC)CCOc1ccc(-c2nc3cc(Cl)ccc3s2)cc1" ?
inactive

What outcome does the record of this test show for "O=S(=O)(O)c1ccc2c(N=Nc3ccc(S(=O)(=O)O)c4ccccc34)c(O)c(S(=O)(=O)O)cc2c1" ?
inactive

Field: outcome | Entry: "O=CCCCC=O"
inactive

Next:
Hi, sorry to bother you, what did the test record for "CCCCCCCCCCCCCC[n+]1ccc(C)cc1" ?
active

---

tested on: ATS95; experiment: qHTS profiling for inhibitors of Plasmodium falciparum proliferation (AID 504749); further: nearly all actives have a fitted effect of over 60% in size; conditions: P. falciparum in erythrocytes, SYBR Green DNA, 72 h; series mostly up to 28.7 µM
Results filed as inconclusive are left out. Calls of active or inactive are those of the source. Calls follow the shape of the dose curve; as a rule, active = well fitted inhibition curve with a large enough effect; inconclusive = small, poorly fitted or top-dose-only effect; inactive = flat fitted curve, though single readings scatter.
Allowed answers: active, inactive

Test call for this compound, please: CCCCCCC(O)C/C=C/CCCCCCCC(=O)O (stereo not given)
inactive

Lab note: next compound to report on.
Called result for "CCOc1ccc2c(c1)C(C)=CC(C)(C)N2"
inactive

---

experiment: P-glycoprotein substrates identified in KB-8-5-11 adenocarcinoma cell line, qHTS therapeutic library screen (AID 1346987); details: KB-8-5-11 (P-gp overexpressing) viability, CellTiter-Glo, 72 h; series mostly up to 44.5 µM; further: on the % scale 0 is the no-effect control and ±100 the full control effect; nearly all actives have a fitted effect of over 65% in size
Results filed as inconclusive are left out. The source made the active and inactive calls. The call rests on the fitted dose curve; in most records, active means well fitted inhibition curve with a large enough effect; inconclusive means small, poorly fitted or top-dose-only effect; inactive means flat fitted curve, though single readings scatter. Where a SMILES comes first, the peptide text is derived from it. [ ]: non-standard residue; d: D form. PhLac = O=C(O)[CH](O)Cc1ccccc1; NMeV = CN[CH](C(=O)O)C(C)C
Property: activity change, negative = cytotoxicity

Note down activity change, negative = cytotoxicity recorded for C[C@@H]1O[C@@H](O[C@H]2[C@H](O[C@H]3CO[C@@H](O[C@H]4CC[C@@]5(C)C(CC[C@]6(C)C5CC[C@]57OC[C@@]8(CC[C@](C)(CO)CC85)[C@H](O)C[C@]76C)C4(C)C)[C@H](O[C@@H]4O[C@H](CO)[C@@H](O)[C@H](O)[C@H]4O)[C@H]3O)O[C@H](CO)[C@@H](O)[C@@H]2O)[C@H](O)[C@H](O)[C@H]1O (stereo partly drawn)
8.31% [at 9.29 µM] (inactive)

Supply measured activity change, negative = cytotoxicity of CC(C)C(C(=O)N1CCCC1C(=O)O)N(C)C(=O)C(O)Cc1ccccc1 (stereo not drawn) (H-[PhLac]-[NMeV]-Pro-OH; configuration not given here) in your reply.
inactive

Input CC(=O)OC1C(O)C(C)=C(CCC(C)CC(=O)O)C2(C)CCCC(C)(C)C12 (stereo not drawn) , output reported activity change, negative = cytotoxicity.
inactive

---

Test system: HACAT
Assay: qHTS assay to identify novel small-molecules to repurpose for Merkel cell carcinoma treatment (AID 1296009); further: nearly all actives have a fitted effect of over 60% in size
Settings: MCC and control cell lines, CellTiter-Glo viability, 72 h; at 44.8 µM (top of the series) unless noted
From the text: MCC is a rare and aggressive neuroendocrine skin cancer with limited treatment options. Approximately 80% of MCCs have the Merkel cell polyomavirus (MCPyV) DNA integrated into the host genome (virus-positive: VP-MCC) and viral oncogenes drive oncogenesis. The remaining MCCs are virus-negative (VN-MCC) and are caused by UV mutagenesis. […] Using cell viability as a readout (CellTiter-Glo assay) we found both overlapping and distinct drugs that can be repurposed for the treatment of VP-MCC and VN-MCC. […]
Records with an inconclusive call do not appear. Active and inactive are the calls of the source. The call rests on the fitted dose curve; in most records, active means well fitted inhibition curve with a large enough effect; inconclusive means small, poorly fitted or top-dose-only effect; inactive means flat fitted curve, though single readings scatter.
Property: outcome

Please review the following examples before continuing.
Complete the entry with outcome for "CCOC(=O)[C@H](CCc1ccccc1)CC1(C(=O)N[C@H]2CCc3ccccc3N(CC(=O)O)C2=O)CCCC1"
inactive

Annotate the compound "C=C[C@](C)(CC/C=C(\C)C(=O)O)O[C@@H]1OC[C@H](O)[C@H](O)[C@H]1O" with its measured outcome.
inactive

Give the measured outcome for C/C=C/C=C/C(CC(=O)O)Nc1ccc(C=O)cc1 (centres undefined)
inactive

Tell us which outcome value is on record for "COc1c(C)c(C(=O)c2ccc(N)c(C(=O)O)c2)n2ccccc12"
inactive

Identify the reported outcome for the following entry. "Clc1ccc(CN[C@H]2CCN(c3ncc(Br)cn3)C2)c(Cl)c1"
inactive

Determine from records and report outcome for "C#Cc1cnc2[nH]c(=O)n(C(CC)CC)c2n1"
inactive

Return reported outcome. Input compound: C/C=C/C1=CC2=CC(=O)C(C)(O)C(OC(=O)c3c(C)cc(O)cc3O)C2CO1 (centres undefined)
inactive

Give the reported outcome for this compound. "C[C@H](NCc1ccc(OCc2ccccc2F)cc1)C(N)=O"
inactive

Specify measured outcome for "CNC(=O)COC(=O)NCCC1CCN(c2cccc(C)n2)CC1" .
inactive

Identify measured outcome corresponding to COc1cc2c(cc1O)C1(Cc3ccc4c(c3C1=O)OCO4)N(C)CC2 (centres undefined)
inactive

---
Given "C=C[C@H]1[C@H](O[C@@H]2O[C@H](CO)[C@@H](O)[C@H](O)[C@H]2O)OC=C2C(=O)OCC[C@]21O" , respond with its outcome.
inactive

Give the value of outcome reported for the following: "O=C(O[C@H]1[C@@H]2C=CO[C@@H](O[C@@H]3O[C@H](CO)[C@@H](O)[C@H](O)[C@H]3O)[C@@H]2[C@@]2(CO)O[C@@H]12)c1ccc(O)cc1"
inactive [at 17.4 µM]

Query outcome for COc1ccc(C2=CC(=O)OC2Cc2ccc(O)cc2)c(O)c1 (centres undefined)
inactive

Quote outcome reported for "CC(C)=CCC/C(C)=C/CC/C(C)=C/CC[C@]1(C)CCc2cc(O)cc(C)c2O1" please.
inactive [at 17.4 µM]

Identify measured outcome associated with "C=CC(C)(C)O[C@@H]1O[C@H](CO[C@@H]2OC[C@](O)(CO)[C@H]2O)[C@@H](O)[C@H](O)[C@H]1O"
inactive

---

test system: TAB165; assay: qHTS profiling for inhibitors of Plasmodium falciparum proliferation (AID 504749); further: nearly all actives have a fitted effect of over 60% in size; details: P. falciparum in erythrocytes, SYBR Green DNA, 72 h; series mostly up to 28.7 µM
Results filed as inconclusive are left out. Activity calls are given as the source filed them. The call rests on the fitted dose curve; in most records, active means well fitted inhibition curve with a large enough effect; inconclusive means small, poorly fitted or top-dose-only effect; inactive means flat fitted curve, though single readings scatter.
Choose the fitting class; nothing outside 1 for active, 0 for inactive is accepted.

Assay outcome for "COC(F)(F)C(Cl)Cl" : what was it?
0

Please state the recorded outcome for this compound: CO[C@H](C(=O)[C@@H](O)[C@@H](C)O)C1Cc2cc3cc(O[C@H]4C[C@@H](O[C@H]5C[C@@H](O)[C@H](O)[C@@H](C)O5)[C@@H](O)[C@@H](C)O4)c(C)c(O)c3c(O)c2C(=O)[C@H]1O[C@H]1C[C@@H](O[C@H]2C[C@@H](O[C@H]3C[C@](C)(O)[C@H](O)[C@@H](C)O3)[C@H](O)[C@@H](C)O2)[C@H](O)[C@@H](C)O1 (stereo partly drawn)
1

For "CC[N+](C)(C)Cc1ccccc1Br" , which call appears in the assay record?
0

Record request — test call for "O=S(=O)(O)O"
0

Called result for CC(C(=O)O)c1ccc(N2Cc3ccccc3C2=O)cc1 (stereo not drawn)
0

Test call for this compound, please: "C[C@H]1C[C@H]2[C@@H]3CCC4=CC(=O)C=C[C@]4(C)[C@@]3(F)[C@@H](O)C[C@]2(C)[C@@]1(O)C(=O)CO"
0

I would be grateful if you could indicate the recorded call for "IC(I)I" .
0

What did the test return for "CC1=C(/C=C/C(C)=C/C=C/C(C)=C/C=C/C=C(C)/C=C/C=C(C)/C=C/C2=C(C)CCCC2(C)C)C(C)(C)CCC1" ?
0
